target: T1, MSR1 on differentiated THP-1 cells (Homo sapiens, UniProt P21757)
T1 construct: endogenous in cells; host or cells: THP-1 cells differentiated with PMA
T1 sequence (P21757 1-451): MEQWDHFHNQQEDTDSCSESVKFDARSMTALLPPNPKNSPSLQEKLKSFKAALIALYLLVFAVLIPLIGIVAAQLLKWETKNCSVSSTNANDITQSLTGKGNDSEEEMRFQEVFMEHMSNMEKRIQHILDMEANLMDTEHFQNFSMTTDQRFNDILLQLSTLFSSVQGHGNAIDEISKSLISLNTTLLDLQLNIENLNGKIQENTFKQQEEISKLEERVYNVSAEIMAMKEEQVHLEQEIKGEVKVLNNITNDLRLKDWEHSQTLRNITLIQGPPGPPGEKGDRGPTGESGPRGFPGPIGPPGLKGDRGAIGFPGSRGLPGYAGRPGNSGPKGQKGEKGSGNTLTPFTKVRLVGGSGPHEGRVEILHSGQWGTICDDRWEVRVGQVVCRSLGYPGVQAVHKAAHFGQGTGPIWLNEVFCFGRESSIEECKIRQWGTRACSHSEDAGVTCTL
measurementProtocol: Binding and internalization of cell-surface expressed MSR1 in differentiated THP-1 cells
Type: cell-based
measurementConditions: 10 μg/mL antibody, 37° C.
observedProperty: Total Internalized RFU
Could you write the number and then its unit?

molecule | observedProperty | valueObserved
H1H27731P-N297Q: one of "Twelve anti-MSR1 antibodies"; "made with an N297Q single point mutation in human Fcγ portion" (antibody, V domains shown) VH: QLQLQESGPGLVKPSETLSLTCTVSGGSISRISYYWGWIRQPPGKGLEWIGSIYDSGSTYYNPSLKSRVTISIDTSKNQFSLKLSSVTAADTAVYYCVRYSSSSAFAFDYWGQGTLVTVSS VL: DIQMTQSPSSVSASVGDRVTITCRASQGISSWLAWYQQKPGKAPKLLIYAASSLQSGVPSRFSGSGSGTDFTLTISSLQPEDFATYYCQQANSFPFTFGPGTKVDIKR | Total Internalized RFU | 977543 RFU

-- ask Quick one: Total Internalized RFU of H1H27754P-N297Q: one of "Twelve anti-MSR1 antibodies"; "made with an N297Q single point mutation in human Fcγ portion" (antibody, V domains shown) VH: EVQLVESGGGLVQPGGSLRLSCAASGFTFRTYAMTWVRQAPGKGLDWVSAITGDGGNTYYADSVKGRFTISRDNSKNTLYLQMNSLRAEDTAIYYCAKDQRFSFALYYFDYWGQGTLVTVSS VL: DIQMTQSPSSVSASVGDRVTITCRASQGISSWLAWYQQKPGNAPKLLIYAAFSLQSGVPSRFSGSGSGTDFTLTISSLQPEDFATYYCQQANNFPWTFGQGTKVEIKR ?
-- reply 6446236 RFU
